Exercise: state measured MIC for each of the compounds provided.
I only need the number, in µg/mL, no unit after it.

## Input Hi! What's the reported MIC for C/C(=C\C(=O)OC1CCC(=NO)CC1)C[C@@H]1OC[C@H](C[C@@H]2O[C@H]2[C@@H](C)[C@H](C)O)[C@@H](O)[C@H]1O (stereo partly shown) [Example 3, 4-Hydroxyiminocyclohexyl monate A] on Strep. dysgalactiae SPD1?
## Output 0.312

## Input Hi! What's the reported MIC for C/C(=C\C(=O)OCCCC(=NO)c1ccccc1)C[C@@H]1OC[C@H](C[C@@H]2O[C@H]2[C@@H](C)[C@H](C)O)[C@@H](O)[C@H]1O [Example 1, 4-Hydroxyimino-4-phenylbutyl monate A] on Strep. dysgalactiae SPD1?
## Output 0.625

## Input Hi! What's the reported MIC for C/C(=C\C(=O)OCCCC(=NO)c1cccs1)C[C@@H]1OC[C@H](C[C@@H]2O[C@H]2[C@@H](C)[C@H](C)O)[C@@H](O)[C@H]1O [Example 4] on Strep. dysgalactiae SPD1?
## Output 0.625

## Input Hi! What's the reported MIC for C/C(=C\C(=O)OCCCC(=NNC(N)=O)c1ccccc1)C[C@@H]1OC[C@H](C[C@@H]2O[C@H]2[C@@H](C)[C@H](C)O)[C@@H](O)[C@H]1O [Example 2, 4-Phenyl-4-semicarbazonobutyl monate A] on Strep. dysgalactiae SPD1?
## Output 0.625

## Input Hi! What's the reported MIC for CON=C(CCCOC(=O)/C=C(\C)C[C@@H]1OC[C@H](C[C@@H]2O[C@H]2[C@@H](C)[C@H](C)O)[C@@H](O)[C@H]1O)c1ccccc1 [Example 5, 4-Methoxyimino-4-phenylbutyl monate A] on Strep. dysgalactiae SPD1?
## Output 1.25

## Input Hi! What's the reported MIC for C/C(=C\C(=O)OCc1ccc(C=NO)o1)C[C@@H]1OC[C@H](C[C@@H]2O[C@H]2[C@@H](C)[C@H](C)O)[C@@H](O)[C@H]1O [Example 7, 5-Hydroxyiminomethylfurfuryl monate A] on Strep. dysgalactiae SPD1?
## Output 0.625

## Input Hi! What's the reported MIC for C/C(=C\C(=O)OCCCCCC=NN(C)C)C[C@@H]1OC[C@H](C[C@@H]2O[C@H]2[C@@H](C)[C@H](C)O)[C@@H](O)[C@H]1O [Example 6, 6-Dimethylhydrazonohexyl monate A] on Strep. dysgalactiae SPD1?
## Output 0.07
